Molecular target: Amyloid-beta precursor protein (Homo sapiens) (UniProt P05067)
Sequence (P05067 whole entry): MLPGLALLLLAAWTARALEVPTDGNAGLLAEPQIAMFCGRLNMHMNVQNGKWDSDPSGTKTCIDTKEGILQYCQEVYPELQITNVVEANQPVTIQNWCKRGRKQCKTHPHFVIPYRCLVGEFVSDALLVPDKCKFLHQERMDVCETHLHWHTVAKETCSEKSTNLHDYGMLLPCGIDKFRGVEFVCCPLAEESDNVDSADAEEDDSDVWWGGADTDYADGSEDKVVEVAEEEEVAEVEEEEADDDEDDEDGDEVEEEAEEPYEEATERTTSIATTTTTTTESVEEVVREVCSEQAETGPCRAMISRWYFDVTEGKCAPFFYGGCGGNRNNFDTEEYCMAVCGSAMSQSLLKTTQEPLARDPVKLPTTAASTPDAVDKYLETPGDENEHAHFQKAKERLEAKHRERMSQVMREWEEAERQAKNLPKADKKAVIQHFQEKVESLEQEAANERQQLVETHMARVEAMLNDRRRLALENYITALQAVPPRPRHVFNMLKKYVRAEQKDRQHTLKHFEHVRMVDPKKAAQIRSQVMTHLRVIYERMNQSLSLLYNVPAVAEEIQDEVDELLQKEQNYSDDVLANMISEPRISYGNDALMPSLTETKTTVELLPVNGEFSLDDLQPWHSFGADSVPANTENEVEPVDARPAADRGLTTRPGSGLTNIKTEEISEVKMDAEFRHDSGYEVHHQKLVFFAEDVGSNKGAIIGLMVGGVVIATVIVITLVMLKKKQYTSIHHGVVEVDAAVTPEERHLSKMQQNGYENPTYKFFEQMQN
Experiment: Inhibition of amyloid beta (1 to 42) (unknown origin) aggregation assessed as reduction in intensity of fluorescence plateau of aggregation at 100 uM using compound dissolved in DMSO measured after 42 hrs by Thioflavin T fluorescence assay relative to control
Set-up: scale not given: the % may be the effect or the level left
The source made the active and inactive calls. The rule behind the calls is not given here.
measured endpoint: Activity

Worked examples, 5 molecules total:
smiles str: CSCC[C@H](NC(=O)[C@H](CC(C)C)NC(=O)CN)C(=O)N[C@H](C(=O)NCC(=O)N1CC[C@@H](NS(=O)(=O)c2ccc(C)cc2)[C@H](N2CCC[C@H]2C(=O)N[C@@H](CCCCN)C(=O)N[C@@H](CC(C)C)C(=O)N[C@H](C(=O)N[C@@H](Cc2ccccc2)C(=O)N[C@@H](Cc2ccccc2)C(N)=O)C(C)C)C1)C(C)C
observed measurement: 97%

smiles str: COc1ccc(NC(C)=O)cc1C(=O)NNC(=O)[C@H](CCCCN)NC(=O)[C@@H]1CCCN1[C@@H]1CN(C(=O)[C@@H](NC(=O)[C@H](C)N)C(C)C)CC[C@H]1N
observed measurement: 18%

smiles str: COc1ccc(NC(C)=O)cc1C(=O)NNC(=O)[C@H](CCCCN)NC(=O)[C@@H]1CCCN1[C@@H]1CN(C(=O)[C@@H](NC(=O)[C@H](C)NC(=O)OC(C)(C)C)C(C)C)CC[C@H]1NS(=O)(=O)c1ccc(C)cc1
observed measurement: inactive

smiles str: COc1ccc(NC(C)=O)cc1C(=O)NNC(=O)[C@H](CCCCN)NC(=O)[C@@H]1CCCN1[C@@H]1CN(C(=O)[C@@H](NC(=O)[C@H](C)N)C(C)C)CC[C@H]1NS(=O)(=O)c1ccc(C)cc1
observed measurement: 66%

smiles str: COc1ccc(NC(C)=O)cc1C(=O)NNC(=O)[C@H](CCCCNC(=O)OCc1ccccc1)NC(=O)[C@@H]1CCCN1[C@@H]1CN(C(=O)[C@@H](NC(=O)[C@H](C)NC(=O)OC(C)(C)C)C(C)C)CC[C@H]1NS(=O)(=O)c1ccc(C)cc1
observed measurement: inactive

Query COc1ccc(NC(C)=O)cc1C(=O)NNC(=O)[C@H](CCCCN)NC(=O)[C@@H]1CCCN1[C@@H]1CN(C(=O)[C@@H](NC(=O)[C@H](C)N)C(C)C)CC[C@H]1NS(=O)(=O)c1ccc(N)cc1 yields Activity of 54%

Query COc1ccc(NC(C)=O)cc1C(=O)NNC(=O)[C@H](CCCCN)NC(=O)[C@@H]1CCCN1[C@@H]1CN(C(=O)[C@@H](NC(=O)[C@H](C)NC(=O)[C@@H](N)C(C)C)C(C)C)CC[C@H]1NS(=O)(=O)c1ccc(C)cc1 yields Activity of 32%

Query COc1ccc(NC(C)=O)cc1C(=O)NNC(=O)[C@H](CCCCN)NC(=O)[C@@H]1CCCN1[C@@H]1CN(C(=O)[C@@H](NC(=O)[C@H](C)N)C(C)C)CC[C@H]1NC(=O)OC(C)(C)C yields Activity of 43%

Query COC(=O)[C@@H]1CCCN1[C@@H]1CNCC[C@H]1NS(=O)(=O)c1ccc(C)cc1 yields Activity of 23%
